system: SNB-19 CNS; assay: NCI tumour cell line growth inhibition, 48 h; in the data active = GI50 below about 0.43 µM; inactive = the rest
Labels: active, inactive

molecule	assay.system	qualitative.label
Nc1c(C(=O)Nc2ccncc2)sc2nc3c(cc12)CCCCCCCC3	SNB-19 CNS	inactive
Nc1nc(/C=C\c2ccc([N+](=O)[O-])s2)nc(N2CCCC2)n1	SNB-19 CNS	inactive
CN1C(=O)N(C)C2C1NN=c1s/c(=C\c3ccc(Cl)cc3Cl)c(=O)n12 (centres undefined)	SNB-19 CNS	active
Cn1cc(C2=C(c3cn(CCCCO)c4ccccc34)C(=O)NC2=O)c2ccccc21	SNB-19 CNS	inactive
Cc1ncc(C(=O)Nc2ccc(CN3CCN(C)CC3)c(C(F)(F)F)c2)cc1C#Cc1cnc(N)c2ccncc12	SNB-19 CNS	inactive
Cc1ccc(NC(=O)CC2CC2)cc1-c1ccc(C(=O)NCC2CC2)cc1	SNB-19 CNS	inactive
COc1c(OC[C@H](O)CN2CCOCC2)ccc2c3n(c(=NC(=O)c4cccnc4C)nc12)CCN3	SNB-19 CNS	inactive
Clc1ccc2[nH]cc(-c3nnnn3-c3ccccc3)c2c1	SNB-19 CNS	inactive
O=C(N[C@@H](c1ccc(Cl)c(Cl)c1)C1CNC1)c1ccc2cnccc2c1	SNB-19 CNS	inactive
